Assign TGI to each entry below.
# Test system: KM20L2 colon
# experiment: NCI tumour cell line growth inhibition, 48 h

Below, each entry is followed by its recorded TGI result.
>>> data_value("O=NN(CCCl)C(=O)N[C@H]1CCCC[C@@H]1Cl")
"> 100 µM"
>>> data_value("CCOC(=O)C(C(=O)OCC)=c1sc(=C(C(=O)OCC)C(=O)OCC)s1")
"> 100 µM"
>>> data_value("CCOC(=O)Nn1c(C)cc(C(=O)OC)c1C")
"> 100 µM"

Record TGI for all entries; do not skip any.
1. CCCCCCCCCCCCC(CCCCCCCCCCCC)OP(=O)(O)O
2. O=C(O)CCSC(=S)Nc1ccc([N+](=O)[O-])cc1
3. CN1N=C2c3ccccc3CC[C@H]2C1c1cccc(O)c1 (stereo partly specified)
4. C=C(CN(C)C)C(=O)c1ccc(Oc2ccccc2)cc1
5. O=C(NNC(=O)c1nsc2ccccc12)c1ccc(Cl)cc1
6. O=C(O)[C@@H](NS(=O)(=O)c1ccc([N+](=O)[O-])cc1)c1ccccc1
7. O=C(C=Nc1ccccc1C(=O)[O-])c1cccs1.O=C(C=Nc1ccccc1C(=O)[O-])c1cccs1.[Zn+2]
8. CCN(CC)CCCCC1CCN(CC(=O)N2c3cc(Cl)ccc3NC(=O)CC2C)CC1 (stereo unspecified)

> 100 µM
> 100 µM
> 100 µM
27.5 µM
53.8 µM
> 100 µM
> 100 µM
> 100 µM

---

# System: OVCAR-4 ovarian
# experiment: NCI tumour cell line growth inhibition, 48 h
Assign TGI to each entry below.

Below, each entry is followed by its recorded TGI result.
>>> data_value("CNC(=O)Nc1ccccc1")
"> 100 µM"
>>> data_value("Cc1nc2sc(C(=O)Nc3cccc(Br)c3)c(N)c2cc1C(O)c1ccccc1 (stereo unspecified)")
"20.4 µM"
>>> data_value("CCN(CC)CC[n+]1cc2cc(OC)c(OC)cc2c2ccc3cc4c(cc3c21)OCO4")
"4.16 µM"
>>> data_value("O=C1COCCN1C(=O)c1ccccc1Cl")
"> 100 µM"
>>> data_value("CCN(CC)CCCNc1ncc(C)c2c1c1ccc3c(O)cccc3c1n2C")
"3.45 µM"

Record TGI for all entries; do not skip any.
1. C/C(=N/NC(N)=S)C(CN(C)C)C(C1=C(O)c2ccccc2OC1)c1ccccc1 (stereo unspecified)
2. CC1=C2CN(C(=O)OCC(C)C)CCC2C2=C(C(=O)c3ccccc3C2=O)C1C (stereo unspecified)

1. > 100 µM
2. > 10 µM

Record TGI for all entries; do not skip any.
1. Nc1nc(-c2ccc(Cl)cc2)cc(-c2ccccc2)c1-c1nc2ccccc2o1
2. CCCCCCCCCCCCC(CCCCCCCCCCCC)OP(=O)(O)O
3. Cn1c(=O)c2[nH]c(CCCCc3nc4c([nH]3)c(=O)n(C)c(=S)n4C)nc2n(C)c1=S
4. O=C(O)c1ccc(NNC(=O)c2cccc3c(=O)c4ccccc4[nH]c23)cc1
5. O=S(=O)(O)C(Cc1nc2ccccc2[nH]1)S(=O)(=O)OCCC1S(=O)(=O)OCCOS1(=O)=O (stereo unspecified)

1. 28 µM
2. > 100 µM
3. > 100 µM
4. > 100 µM
5. > 100 µM

Record TGI for all entries; do not skip any.
1. O=C(COc1ccc(Cl)cc1Cl)N/N=C/C=C/c1ccc([N+](=O)[O-])o1
2. O=C(Cc1ccccc1)NS(=O)(=O)c1ccccc1
3. COc1cc2c(cc1OC)C(=O)/C(=C/c1ccc([N+](=O)[O-])cc1)CC2

1. 61.8 µM
2. > 100 µM
3. > 10 µM

Record TGI for all entries; do not skip any.
1. Cc1ccc(S(=O)(=O)Nn2c(O)c(C#N)c(-c3ccc(N(C)C)cc3)c(C#N)c2=O)cc1
2. CN1CCc2cc(N)cc3c2C1Cc1ccc2c(c1-3)OCO2 (stereo unspecified)
3. Cn1c(=O)n2n(c1=O)[C@@H](c1ccccc1)[C@H]2c1ccccc1
4. O=C1C[C@H](CCC(=O)OCc2ccccc2)NC(=O)C[C@H](CCC(=O)OCc2ccccc2)NC(=O)C[C@H](CCC(=O)OCc2ccccc2)N1
5. CCO/C=C(\C(=O)OC)S(=O)(=O)c1ccc(C)cc1
6. CC(CN)[C@@H]1CC[C@]2(CO)CC[C@]3(C)[C@H](CC[C@@H]4[C@@]5(C)CCC(N)C(C)(C)[C@@H]5CC[C@]43C)[C@@H]12 (stereo partly specified)
7. CC(=O)[O][Bi]([c]1ccccc1)[c]1ccccc1

1. > 50 µM
2. > 90.4 µM
3. > 100 µM
4. > 100 µM
5. > 100 µM
6. 3.16 µM
7. 27 µM

---

# Tested on: HOP-92 NSCLC
# experiment: NCI tumour cell line growth inhibition, 48 h
metric: TGI (µM)
One number for each entry, in µM.

>>> data_value("CC#CC(=O)N1CC[C@@H](n2c(=O)n(-c3ccc(Oc4ccccc4)cc3)c3c(N)ncnc32)C1")
68.1
>>> data_value("CC1c2cc(c3c(c2O)CN([C@@H](C)C2CCCCC2)CO3)C(C)c2cc(c3c(c2O)CN([C@@H](C)C2CCCCC2)CO3)C(C)c2cc(c3c(c2O)CN([C@@H](C)C2CCCCC2)CO3)C(C)c2cc1c1c(c2O)CN([C@@H](C)C2CCCCC2)CO1 (stereo partly drawn)")
2.85
>>> data_value("O=c1cc(-c2cccc(OCc3ccccc3)c2)[nH]c2cc3c(cc12)OCO3")
18.6
>>> data_value("COc1ccc2nc3ccccc3c(NCc3ccc(C)cc3)c2c1")
3.12

Record TGI for all entries; do not skip any.
1. Cc1cc(O)c2c(c1)CC(O)C1=C2C(=O)c2c(O)ccc(OC3CC(O)C(OC4CC(OC5CCC(O)C(C)O5)C(O)C(C)O4)C(C)O3)c2C1=O (stereo not drawn)
2. CCN(CC)CCCNc1ncc(C)c2c1c1ccc3c(O)cccc3c1n2C

3.54
26.6

---

# Test system: HS 578T breast
# experiment: NCI tumour cell line growth inhibition, 48 h
Assign TGI to each entry below.

>>> data_value("COc1ccc(-n2sc3ncc([N+](=O)[O-])cc3c2=O)cc1")
"> 100 µM"
>>> data_value("Cc1cn(C2CC(NC(=NCC3OC(n4cnc5c(N)ncnc54)CC3O)NC#N)C(CO)O2)c(=O)[nH]c1=O (stereo unspecified)")
"> 100 µM"
>>> data_value("CC1(O)Oc2ccc3ccccc3c2C=C1C(N)=O (stereo unspecified)")
"> 100 µM"
>>> data_value("COC(=O)C1(C(=O)OC)CC2=C(S(=O)(=O)c3ccccc3)C[C@H](C#N)[C@H]2C1")
"> 100 µM"
>>> data_value("Clc1ccc(-c2nnc(-c3c(Cl)c(Cl)c(Cl)c(Cl)c3-c3nc4ccccc4[nH]3)o2)cc1")
"> 100 µM"

Record TGI for all entries; do not skip any.
1. O=C(O)c1ccc(NNC(=O)c2cccc3c(=O)c4ccccc4[nH]c23)cc1
2. C[C@]12CCC(=O)C=C1CC[C@@H]1[C@@H]2[C@@H](O)C[C@@]2(C)[C@H]1CC[C@]2(O)C(=O)COC(=O)C1CCCC1
3. CC12C(=O)OC(=O)C1(C)C1C=CC2O1 (stereo unspecified)
4. CC#CC(=O)N1CC[C@@H](n2c(=O)n(-c3ccc(Oc4ccccc4)cc3)c3c(N)ncnc32)C1

1. > 100 µM
2. > 100 µM
3. > 100 µM
4. > 100 µM

---

# System: 786-0 renal
# experiment: NCI tumour cell line growth inhibition, 48 h; in the data active means GI50 below about 0.43 µM; inactive means the rest
Thanks in advance; please answer with one of these: active, inactive

Use the examples below as a reference point.
>>> classification("Oc1c(CN2CCN(c3ccccc3F)CC2)cc(Br)c2cccnc12")
"inactive"
>>> classification("C=C1C(=O)O[C@H]2[C@H]1CC/C(COC(=O)NCc1cc(OC)cc(OC)c1)=C\\CC[C@@]1(C)O[C@@H]21")
"inactive"
>>> classification("Nc1ccc(-c2ccc(-c3nc4cc(Cl)c(Cl)cc4[nH]3)cc2)cc1")
"inactive"

# lookup: test call for `CCCCCCNCCCNc1c2ccccc2nc2cccc([N+](=O)[O-])c12`
active

Similarly, `Fc1cccc(-c2[nH]nc3nc(Nc4cccnc4)sc23)c1` ?
inactive

Similarly, C/C=C/C1=CN2C(=O)c3cc(OC4OC(C)C(NC)C(C)(O)C4O)c(C)c(O)c3N=C[C@@H]2C1 (stereo partly specified) ?
active

Similarly, `Nc1ccccc1C#Cc1ccccc1C#Cc1cnccn1` ?
inactive

Similarly, `COC1=C(OC)[C@]2(OC)c3c(O)c(OC)c4c(c3O[C@@]23O[C@@H](c2ccccc2)CC=C3C1=O)[C@@H](O)C[C@H](c1ccccc1)O4` ?
active

---

# Test system: SF-539 CNS
# experiment: NCI tumour cell line growth inhibition, 48 h
Assign TGI to each entry below.

>>> data_value("COc1ccc(C(SCC(N)C(=O)O)(c2ccc(OC)cc2)c2ccc(OC)cc2)cc1 (stereo not given)")
"17.6 µM"

Record TGI for all entries; do not skip any.
1. CN1CCc2cc(N)cc3c2C1Cc1ccc2c(c1-3)OCO2 (stereo not given)
2. COc1ccc(C2=NN(C(=O)c3cccnc3)C(O)(c3cc(F)c(Cl)cc3Cl)C2)cc1OC (stereo not given)
3. CCOC(=O)c1cc(OC(=O)CC)c2c(OC)ccc(OC)c2c1

["> 95 µM", "33.5 µM", "> 100 µM"]

Record TGI for all entries; do not skip any.
1. Cc1nnc2n1N=C(c1cc(F)c(Cl)cc1Cl)/C(=C/c1ccc3c(c1)OCO3)S2
2. Nc1ccc(-c2ccc(-c3nc4cc(Cl)c(Cl)cc4[nH]3)cc2)cc1
3. O=C(C=Nc1ccccc1C(=O)[O-])c1cccs1.O=C(C=Nc1ccccc1C(=O)[O-])c1cccs1.[Zn+2]
4. COC(=O)C1(C(=O)OC)CC2=C(S(=O)(=O)c3ccccc3)C[C@H](C#N)[C@H]2C1
5. O=c1c2cc(S(=O)(=O)Nc3c(Cl)cccc3Cl)ccc2ncn1NS(=O)(=O)c1ccc2ccccc2c1

1. > 100 µM
2. > 51.5 µM
3. > 100 µM
4. > 100 µM
5. > 62.5 µM

Record TGI for all entries; do not skip any.
1. CC(C)C1COC(c2ccc3ccccc3c2-c2c(O[Si](C)(C)C(C)(C)C)ccc3ccccc23)=N1 (stereo not given)
2. COC(=O)/C=C1/OC(c2ccc(C)cc2)=C(Cl)C1=O
3. Cn1sc2ccccc2c1=S
4. C[N+](C)(CCO)CCN1c2ccccc2Sc2ccccc21
5. N#C[S-].[Ce+3].c1cnc2c(c1)ccc1cccnc12.c1cnc2c(c1)ccc1cccnc12.c1cnc2c(c1)ccc1cccnc12
6. Cc1ccc2c(c1)C=CC(C#N)N2C(=O)Oc1ccccc1 (stereo not given)
7. C[C@@H]1OCC2(CCN(c3cnc(Sc4ccnc(N)c4Cl)c(N)n3)CC2)[C@@H]1N
8. COC(=O)c1ccc(NCC2=CC(=O)C=CC2=O)cc1

["32.4 µM", "35.5 µM", "16.4 µM", "> 10 µM", "16 µM", "> 100 µM", "> 100 µM", "24.5 µM"]

Hey, just so you know, these numbers are from PubChem BioAssay (NCI).
